Cited source: PubChem BioAssay

# assay-explanation: PSAC antagonists in infected red cells, primary screen, cell-based, P. falciparum Indochina, OD700, 18 h (AID 1157)
# assay-setup: P. falciparum Indochina infected erythrocytes, osmotic lysis OD700, 18 h; higher = more signal, called active from +8 up or from −8 down
Overview of recorded z-score for various compounds
quantity: z-score

INSERT INTO measurements (compound, quantity, observed_result) VALUES
  ('O=C1C2C=CC(C(O)c3ccc(-c4ccccc4)s3)N(n3cnnc3)C2C(=O)N1Cc1ccccc1 (configuration not stated)', 'z-score', 0.832),
  ('CO[C@H]1O[C@H](CO)[C@@H](OC(=O)Nc2ccc3c(c2)OCO3)[C@H](OC(=O)Nc2ccccc2)[C@H]1OC(=O)Nc1ccccc1', 'z-score', 0.421),
  ('O=c1cccc(CCc2ccccc2)o1', 'z-score', 0.339),
  ('O=C1OCCC=C[C@H]2OC34C=CCN(c5ccc6ccccc6c5)C(=O)[C@H]3N(CCCCCO)C(=O)[C@@H]4C12 (some centres not stated)', 'z-score', 0.599),
  ('COCCOC(=O)N1C(=O)[C@@]2(c3cc(C#CCNC(N)=O)ccc31)[C@H](c1ccccc1OCCO)N1[C@H](c3ccccc3)[C@H](c3ccccc3)OC(=O)[C@H]1[C@@H]2C(N)=O', 'z-score', 0.344),
  ('O=C1O[C@H](c2ccccc2)[C@H](c2ccccc2)N2[C@H]1[C@@H](C(=O)N1CCN(c3ncccn3)CC1)[C@]1(C(=O)Nc3ccccc31)[C@H]2c1ccc(OCCO)cc1', 'z-score', -1.32),
  ('Cc1ccc(S[C@]2(C(=O)NCC(C)C)CC(=O)N(Cc3ccccc3Cl)[C@@H]2c2ccc(CO)cc2)cc1', 'z-score', 0.0839);
